# Ki per record follows
- experiment: Displacement of [3H]ditolyguanidine from sigma2 receptor in rat liver membranes
- Type: cell membranes, Membrane
reported.endpoint: Ki (nM)

FCCOCCOCCOc1ccc(CN2CCN(Cc3ccc4c(c3)OCO4)CC2)cc1	1420
FCCOc1ccc(CN2CCN(Cc3ccc4c(c3)OCO4)CC2)cc1	291
FCCOCCOc1ccc(CN2CCN(Cc3ccc4c(c3)OCO4)CC2)cc1	666
O=C(CCCN1CCC(O)(c2ccc(Cl)cc2)CC1)c1ccc(F)cc1	20.7

----------
- tested.on: Sigma non-opioid intracellular receptor 1 (Rattus norvegicus, UniProt Q9R0C9)
- Sequence (Q9R0C9 whole entry): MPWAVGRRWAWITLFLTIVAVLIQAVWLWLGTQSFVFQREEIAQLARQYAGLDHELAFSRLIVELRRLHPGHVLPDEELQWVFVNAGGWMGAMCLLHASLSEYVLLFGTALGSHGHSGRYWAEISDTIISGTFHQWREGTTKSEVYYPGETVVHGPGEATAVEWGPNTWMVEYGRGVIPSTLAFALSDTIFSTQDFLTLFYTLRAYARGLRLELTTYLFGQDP
- experiment: Displacement of (+)-[3H]pentazocine from sigma1 receptor in rat brain membranes
# Ki annotations
reported.endpoint: Ki (µM)

FCCOCCOc1ccc(CN2CCN(Cc3ccc4c(c3)OCO4)CC2)cc1	0.0407
FCCOc1ccc(CN2CCN(Cc3ccc4c(c3)OCO4)CC2)cc1	0.00185
FCCOCCOCCOc1ccc(CN2CCN(Cc3ccc4c(c3)OCO4)CC2)cc1	0.505
